# targetOrTestSystem: ACAT (acyl-CoA:cholesterol O-acyltransferase enzyme)
# protocolDetails: Inhibition of ACAT in vitro (technique of H. Chautan et al.)
# conditionContext: read-out: IC50 (50% inhibitory concentration), ACAT inhibition
# From the text: The compounds were studied for their inhibitory effect on ACAT and hypocholesterolemic effect in rats on the one hand and for their antioxidant effect on the other hand.
// classify: if (IC50 < 0.7 µM) t else f

{"compound": "CCCCCCCCCCCCC(C)(C)C(=O)NCC(=O)Nc1cc(C)c(O)c(C)c1C", "targetOrTestSystem": "ACAT (acyl-CoA:cholesterol O-acyltransferase enzyme)", "category": "f"}
{"compound": "CCCCCCCCCCCCSC(C)(C)C(=O)NCC(=O)Nc1cc(C)c(O)c(C)c1C", "targetOrTestSystem": "ACAT (acyl-CoA:cholesterol O-acyltransferase enzyme)", "category": "t"}
{"compound": "CCCCCCCCCCCCSC(C)(C)C(=O)N(C)CC(=O)Nc1cc(C)c(O)c(C)c1C", "targetOrTestSystem": "ACAT (acyl-CoA:cholesterol O-acyltransferase enzyme)", "category": "t"}
{"compound": "CCCCCCCCCCCCSC(C)C(=O)NCC(=O)Nc1cc(C)c(O)c(C)c1C (centres unmarked)", "targetOrTestSystem": "ACAT (acyl-CoA:cholesterol O-acyltransferase enzyme)", "category": "f"}
{"compound": "CCCCCCCCCCCCSC(C)C(=O)N(C)CC(=O)Nc1cc(C)c(O)c(C)c1C (centres unmarked)", "targetOrTestSystem": "ACAT (acyl-CoA:cholesterol O-acyltransferase enzyme)", "category": "t"}
